Reported fold change (FC) by item:
Method notes: Upregulation of CYP24A1 mRNA expression in human U87MG cells at 10 uM after 24 hrs by RT-PCR analysis relative to DMSO-treated control
Type: functional, cell-based
Measurement setup: U-87MG ATCC

- Molecule: "C=C1CC[C@H](O)C/C1=C/C(O)C1(O)CCC[C@]2(C)[C@@H]([C@H](C)CCCC(C)C)CC[C@@H]12 (some centres undefined)"
  fold change (FC): 0.5
- Molecule: "CC(C)CCC[C@@H](C)[C@H]1CC[C@H]2[C@@H](O)CCC[C@]12C"
  fold change (FC): 0.4
- Molecule: "C=C1CC[C@H](O)C/C1=C/CO"
  fold change (FC): 0.6
- Molecule: "CC(C)CCC[C@@H](C)[C@H]1CC[C@H]2C(CCC3C[C@@H](O)CCC3C)CCC[C@]12C (some centres undefined)"
  fold change (FC): 0.8
- Molecule: "C[C@H](CO)[C@H]1CC[C@H]2[C@@H](O)CCC[C@]12C"
  fold change (FC): 0.7
- Molecule: "C=C1CC[C@H](O)C/C1=C/C=C1\\CCC[C@]2(C)[C@@H]([C@H](C)CCCC(C)C)CC[C@@H]12 [CHOLECALCIFEROL]"
  fold change (FC): 12.2
- Molecule: "C=C1CCC=C/C1=C/C=C1\\CCC[C@]2(C)[C@@H]([C@H](C)CCCC(C)C)CC[C@@H]12"
  fold change (FC): 0.9
- Molecule: "C=C1CC[C@H](O)C/C1=C\\C=C1/CCC[C@]2(C)[C@@H]([C@H](C)CO)CC[C@@H]12"
  fold change (FC): 0.8
- Molecule: "C=C1CC[C@H](O)C/C1=C/C=C1\\CCC[C@]2(C)[C@@H]([C@H](C)CO)CC[C@@H]12"
  fold change (FC): 4.8
- Molecule: "C=C1CC[C@H](O)C/C1=C\\C=C1/CCC[C@]2(C)[C@@H]([C@H](C)CCCC(C)C)CC[C@@H]12"
  fold change (FC): 33.8
- Molecule: "CC(C)CCC[C@@H](C)[C@H]1CC[C@H]2C(=O)CCC[C@]12C"
  fold change (FC): 0.5
- Molecule: "C=C1CC[C@H](O)C/C1=C/C=C1\\CCC[C@]2(C)[C@@H]([C@H](C)/C=C/[C@H](C)C(C)C)CC[C@@H]12 [ERGOCALCIFEROL]"
  fold change (FC): 49.6
- Molecule: "CC(C)CCC[C@@H](C)[C@H]1CCC2=CCCC[C@@]21C"
  fold change (FC): 0.5
- Molecule: "CC(C)[C@@H](C)/C=C/[C@@H](C)[C@H]1CC[C@H]2[C@@H](O)CCC[C@]12C"
  fold change (FC): 0.3
